molecular target: MASP-2 CCP2-SP (Homo sapiens (Human)); experiment: MASP-2 co-crystallization, X-ray crystallography and structure analysis (H-bonds, van der Waals contacts); conditions: Table A6-2 pharmacophore angle
Sequence (O00187 445-686): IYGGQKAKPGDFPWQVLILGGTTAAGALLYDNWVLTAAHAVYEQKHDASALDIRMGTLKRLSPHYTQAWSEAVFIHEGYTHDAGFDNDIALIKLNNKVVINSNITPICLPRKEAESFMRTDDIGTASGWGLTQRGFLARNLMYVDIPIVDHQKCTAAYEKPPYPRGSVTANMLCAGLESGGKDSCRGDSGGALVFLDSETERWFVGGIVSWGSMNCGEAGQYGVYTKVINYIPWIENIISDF
Sequence (O00187 364-432 partner): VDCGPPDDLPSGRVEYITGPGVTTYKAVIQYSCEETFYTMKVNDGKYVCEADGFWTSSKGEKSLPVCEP
Structures can show the parent of a compound that is named as a salt.
Reported Metric: a(O2, N2, CA2)

>>> test_value("C[C@H](NC(=O)[C@H](N)CCCc1ccccc1)C(=O)NCc1ccc(C(=N)N)cc1.Cl.Cl [1042_1]")
155.50
>>> test_value("C[C@H](NC(=O)[C@H](N)CCc1ccccc1)C(=O)NCc1ccc(C(=N)N)cc1")
154.55
>>> test_value("C[C@H](NC(=O)[C@H]1C[C@@H](c2ccccc2)CCN1)C(=O)NCc1cc(Cl)ccc1O.Cl [1078_3]")
154.83
>>> test_value("Cc1nc(N)ccc1CNC(=O)[C@H](C)NC(=O)[C@H]1C[C@H](Cc2cc(Cl)cc(Cl)c2)CN1 [compound 1435, Dihydrochloride]")
157.86
>>> test_value("CC(=O)Nc1ccc(CCNC(CCc2ccccc2)C(=O)NC(C)C(=O)NCc2ccc(C(=N)N)cc2)cc1.Cl.Cl (stereo not shown) [1345_2]")
153.90
>>> test_value("Cc1nc(N)ccc1CNC(=O)[C@H](C)NC(=O)[C@H]1C[C@@H](c2cccc3ccccc23)CCN1.Cl.Cl [1297_5]")
157.05
>>> test_value("Cc1nc(N)ccc1CNC(=O)[C@H](C)NC(=O)[C@H]1C[C@H](Cc2cccc(Cl)c2)CN1.Cl.Cl [1328_3]")
154.95

====

target: MASP-2 CCP2-SP (Homo sapiens (Human)); assay: MASP-2 co-crystallization, X-ray crystallography and structure analysis (H-bonds, van der Waals contacts); details: Table A1 (H-Bonds); SER 628 O
Where a name gives a salt, the structure may show the parent alone.
// values below are reported H-bond distance to MASP-2 SER 628 atom O
Reported Metric: H-bond distance to MASP-2 SER 628 atom O

>>> test_value("Cc1nc(N)ccc1CNC(=O)[C@H](C)NC(=O)[C@H]1C[C@H](Cc2cccc(Cl)c2)CN1")
3.06
>>> test_value("C[C@H](NC(=O)C1C[C@@H](c2ccccc2)CCN1)C(=O)NCc1ccc(C(=N)N)cc1 (stereo in doubt)")
2.93
>>> test_value("Cc1nc(N)ccc1CNC(=O)[C@H](C)NC(=O)[C@H]1C[C@H](Cc2ccccc2Br)CN1 [compound 1372, Di-trifluoroacetate salt]")
3.18
>>> test_value("Cc1nc(N)ccc1CNC(=O)[C@H](C)NC(=O)c1cc(Cc2ccccc2)n[nH]1")
3.15
>>> test_value("Cc1nc(N)ccc1CNC(=O)[C@H](C)NC(=O)[C@H]1C[C@@H](c2cccc3ccccc23)CCN1")
2.96
>>> test_value("Cc1nc(N)ccc1CNC(=O)[C@H](C)NC(=O)[C@H]1C[C@@H](c2ccccc2)CCN1 [compound 1253, Dihydrochloride]")
3.12
>>> test_value("C[C@H](NC(=O)[C@H](N)CCc1cccc(Cl)c1)C(=O)NCc1ccc(C(=N)N)cc1")
2.86
>>> test_value("Cc1nc(N)ccc1CNC(=O)[C@H](C)NC(=O)[C@H]1C[C@@H](c2ccccc2)CCN1CCC(=O)O [compound 1411, Trifluoroacetate salt]")
3.2
>>> test_value("C[C@H](NC(=O)[C@H]1C[C@@H](c2ccccc2)CCN1)C(=O)NCc1ccc(N)nc1 (stereo in doubt)")
2.38
>>> test_value("Cc1nc(N)ccc1CNC(=O)[C@H](C)NC(=O)[C@H]1C[C@@H](c2ccccc2)CCN1C")
3.06
>>> test_value("C[C@H](NC(=O)[C@H]1C[C@H](Cc2ccccc2)CN1)C(=O)NCc1ccc(C(=N)N)cc1")
2.24
>>> test_value("C[C@H](NC(=O)[C@H](N)CCc1ccccc1)C(=O)NCc1ccc(N)nc1")
2.59
>>> test_value("Cc1nc(N)ccc1CNC(=O)[C@H](C)NC(=O)[C@H]1C[C@H](Cc2ccc3ccccc3c2)CN1")
3.04
